Listed here: items and their measured tissue uptake dose at 2 h.
MEASUREMENT PROTOCOL: in vivo
Set-up: species or system mice
TEST PARAMETERS: C57, mouse, iv, total radioactivity
Positions of bridges follow the written chain, without caps; N, C: chain ends. Non-standard residues stand in square brackets, D forms with d. Residues, ends and D or L forms follow the SMILES beside them. *: point of attachment. NOTA = O=C(O)CN1CCN(CC(=O)O)CCN(CC(=O)*)CC1; Nle = CCCC[C@H](N)C(=O)O
// note: answer is a bare numeric in %ID

CCCC[C@H](NC(=O)CNC(=O)CNC(=O)CN1CCN(CC(=O)O)CCN(CC(=O)O)CC1)C(=O)N[C@H]1CC(=O)NCCCC[C@@H](C(N)=O)NC(=O)[C@H](Cc2c[nH]c3ccccc23)NC(=O)[C@H](CCCNC(=N)N)NC(=O)[C@@H](Cc2ccccc2)NC(=O)[C@H](Cc2c[nH]cn2)NC1=O [^67Cu-NOTA-GGNle-CycMSHhex, ^67Cu-NOTA-GlyGlyNle-CycMSHhex, metal not drawn] ({NOTA}-GG[Nle]DH[dF]RWK-NH2; lactam 4-9)    1.48

# ---- query molecule ----
Form: molecule = CCCC[C@H](NC(=O)COCCOCCNC(=O)CN1CCN(CC(=O)O)CCN(CC(=O)O)CC1)C(=O)N[C@H]1CC(=O)NCCCC[C@@H](C(N)=O)NC(=O)[C@H](Cc2c[nH]c3ccccc23)NC(=O)[C@H](CCCNC(=N)N)NC(=O)[C@@H](Cc2ccccc2)NC(=O)[C@H](Cc2c[nH]cn2)NC1=O [^67Cu-NOTA-PEG2Nle-CycMSHhex, metal not drawn] ; tissue uptake dose at 2 h = 2.09

Provenance of the data: paper PMC10216305
